Measured Kd of individual entries
# targetSystem: T1, sense peptide S2 (YIYRNYPDF), ammodytoxin A segment from position 115 to 124 (Vipera ammodytes)
# T1 peptide: YIYRNYPDF
# testName: other fluorescence titration
# conditions: both partners purified

- binder: "INISIVGVK (designed binder) [antisense peptide S2A1 (INISIVGVK)]"
  Kd (µM): 1.1
- binder: "VNISVIGIK (designed binder) [antisense peptide S2A2 (VNISVIGIK)]"
  Kd (µM): 8.9

Data origin, for the record: paper PMC11858715
